Test system: C. trachomatis serovar LGV-L2
Protocol details: Inhibition of infectious Chlamydia progenies (C. trachomatis infectivity, reinfection of HeLa cells, IFU count)
Type: cell-based
Measurement parameters: 100 uM compound, infected HeLa cells, MOI 0.3, compound added 1 hpi, 44-48 h, relative to DMSO-treated control
Label label 0 if inhibition at 100 µM falls below 90%; label label 1 in every other case.

In: Can CC(C)Nc1c(Cc2cccc3ccccc23)cc(=O)n2c1SC[C@H]2C(=O)O [Example 33] be said to have inhibition at 100 µM at or above 90%?
Out: label 0

In: Also Cc1cccc(Cc2cc(=O)n3c(c2N(C)C)SC[C@H]3C(=O)O)c1C [Example 31] ?
Out: label 0

In: Would you mind doing Cc1ccc(Cc2cc(=O)n3c(c2N(C)C)SC[C@H]3C(=O)O)c2ccccc12 [Example 32] as well?
Out: label 1

In: What do you get for O=C(O)[C@@H]1CSc2c(OCC3CC3)c(Cc3cccc4ccccc34)cc(=O)n21 [Example 28] ?
Out: label 0

In: Request: O=C(O)[C@@H]1CSc2c(C(F)(F)F)c(Cc3cccc4ccccc34)cc(=O)n21 [Example 29]
Out: label 0
